I'd appreciate it if you could supply GI50 values for the items below.
- System: U-251
- MEASUREMENT NOTES: NCI tumour cell line growth inhibition, 48 h
Calls of active or inactive are those of the source. Cut-off read from the data, not from the text of the source: active = GI50 up to about 1.1 µM and inactive = higher.

Provide measured GI50 on U-251 for CCOC(=O)C(NC(=O)NCc1ccc(F)cc1)C(F)(F)F (stereo not drawn) please. > 100 µM (inactive)

Provide measured GI50 on U-251 for O=C(NNS(=O)(=O)c1ccccc1)c1cccnc1 please. > 100 µM (inactive)

Provide measured GI50 on U-251 for COC(=O)C(C)Oc1ccc(O)cc1 (stereo not drawn) please. > 100 µM (inactive)

Provide measured GI50 on U-251 for CN1CCN(c2cc3[nH]c(-c4ccc(Cl)cc4)nc3cc2F)CC1 please. 21.4 µM (inactive)

Provide measured GI50 on U-251 for O=[N+]([O-])c1cccnc1NCC1(CO)CC(Cc2ccccc2)C1 (stereo not drawn) please. > 100 µM (inactive)

Provide measured GI50 on U-251 for O=C(O)c1oc(C(=O)O)c(C(=O)O)c1C(=O)O please. > 100 µM (inactive)

Provide measured GI50 on U-251 for COC(=O)C1(Cc2ccc3c(c2)CCC3)Cc2cc3c(cc2C1=O)CCC3 (stereo not drawn) please. 29.4 µM (inactive)

Provide measured GI50 on U-251 for Nc1c([N+](=O)[O-])cc2c3c(cccc13)CC2 please. 91 µM (inactive)

Provide measured GI50 on U-251 for CC(C)=Cc1cc(C(=O)Nc2ccc(Cl)c(Cl)c2)nc(N)n1 please. > 100 µM (inactive)

Provide measured GI50 on U-251 for COc1ccc(N(C)C(=O)N(C)c2ccc([N+](=O)[O-])cc2)cc1 please. 30.4 µM (inactive)

Provide measured GI50 on U-251 for Cc1cc(OP2(=O)NCc3ccncc3O2)ccc1Cl (stereo not drawn) please. > 100 µM (inactive)

Provide measured GI50 on U-251 for CC(C)=CCC[C@@H](C)C1=C(Nc2ccccc2F)C(=O)C(C)=C(O)C1=O please. 8.49 µM (inactive)

Provide measured GI50 on U-251 for CCN1CCC(O)(/C=C/c2ccc(C)cc2C)C(C(=O)/C=C/c2ccc(C)cc2C)C1 (stereo not drawn) please. 3.39 µM (inactive)

Provide measured GI50 on U-251 for COC(=O)[C@@H](NS(=O)(=O)CC12CCC(CC1)C2(C)C)C(C)(C)C please. > 100 µM (inactive)

Provide measured GI50 on U-251 for C#CCN1C(=O)CN2C(Cl)(Cl)C2(c2ccccc2)c2cc(Cl)ccc21 (stereo not drawn) please. > 10 µM (inactive)

Provide measured GI50 on U-251 for CC(C)(C)OC(=O)NC(Cc1ccc(OCc2ccccc2)cc1)C(=O)NC(COCc1ccccc1)C(=O)Oc1c(Cl)c(Cl)c(Cl)c(Cl)c1Cl (stereo not drawn) please. 18 µM (inactive)

Provide measured GI50 on U-251 for C/C(=N\O)c1ccc2cc(Br)c3ccccc3c2c1 please. 14.6 µM (inactive)

Provide measured GI50 on U-251 for Cc1ccc(N2Cc3c(ccc4ccccc34)OP2(=O)Oc2ccc(Cl)c(C)c2)cc1 (stereo not drawn) please. > 100 µM (inactive)

Provide measured GI50 on U-251 for COc1cc(C)cc(OC)c1/C=C/C(=O)O please. > 100 µM (inactive)

Provide measured GI50 on U-251 for Nc1nc(Cl)cc(OCC2(CO)CCCCC2)n1 please. 86.5 µM (inactive)

Provide measured GI50 on U-251 for CC1CC(=O)Nc2cc(Cl)ccc2N1C(=O)C1CC1 (stereo not drawn) please. > 100 µM (inactive)

Provide measured GI50 on U-251 for O=C(O)CC(Cc1ccccc1Cl)C(=O)O (stereo not drawn) please. > 100 µM (inactive)

Provide measured GI50 on U-251 for [N-]=[N+]=Nc1cc(=O)n(-c2ccccc2)c(=O)n1-c1ccccc1 please. > 100 µM (inactive)

Provide measured GI50 on U-251 for CC1=NN2C(=N)/C(=C/c3ccc(F)cc3)C(=O)N=C2S1 please. > 100 µM (inactive)

Provide measured GI50 on U-251 for O=C1C=Cc2noc3cccc1c23 please. 13.4 µM (inactive)

Provide measured GI50 on U-251 for Cc1ccc([N+](=O)[O-])c2c(NCCC[N+](C)(C)[O-])ccnc12 please. 83.6 µM (inactive)

Provide measured GI50 on U-251 for Cn1c(-c2cccc([N+](=O)[O-])c2)[n+](C)c2ccccc21 please. > 100 µM (inactive)

Provide measured GI50 on U-251 for N#Cc1sc2c(c1OC(=O)c1ccc(Cl)cc1)c(=O)n(-c1ccccc1)c(=S)n2-c1ccccc1 please. 11.1 µM (inactive)

Provide measured GI50 on U-251 for C[C@]12CC[C@H](OC3CCCCO3)CC1=CC[C@@H]1C2CC[C@]2(C)/C(=N/OCCC#N)CCC12 (stereo partly drawn) please. 40.4 µM (inactive)

Provide measured GI50 on U-251 for CCOC(=O)CC1COc2ccc3c(c21)OCO3 (stereo not drawn) please. > 100 µM (inactive)

Provide measured GI50 on U-251 for CSC(=N)N1N=C2/C(=C/c3ccccc3)CCC[C@H]2[C@H]1c1ccccc1 please. 12 µM (inactive)

Provide measured GI50 on U-251 for OC1c2ccccc2C(O)C2OC12 (stereo not drawn) please. > 100 µM (inactive)

Provide measured GI50 on U-251 for Clc1ccc2c(c1)CC1C[N+]3=C(CCCC3)C1=C2 (stereo not drawn) please. 34 µM (inactive)
